# System: MRAB (A. baumannii) ATCC BAA 1605
# Assay type: cell-based, Acinetobacter baumannii
# Measurement Conditions: ATCC BAA 1605, 18 h
Square brackets hold non-standard residues; d marks the D form. Peptide text beside a SMILES is read from it.

Compound: CC[C@@H](C)[C@@H](NC(=O)[C@@H](Cc1c[nH]c2ccccc12)NC(=O)[C@@H](CCCNC(=N)N)NC(=O)[C@@H](CCCNC(=N)N)NC(=O)[C@H](N)CCCNC(=N)N)C(=O)N[C@H](Cc1c[nH]c2ccccc12)C(=O)N[C@@H](C(=O)N[C@H](CC(C)C)C(=O)N[C@H](Cc1c[nH]c2ccccc12)C(N)=O)C(C)C [KSH73, rrrwiwvlw] (H-[dR][dR][dR][dW][dI][dW][dV][dL][dW]-NH2; N-terminus assumed)
Tgt: MRAB (A. baumannii) ATCC BAA 1605
MIC MRAB (A. baumannii) ATCC BAA 1605 / µM: 2.5
--
Compound: CC[C@@H](C)[C@@H](NC(=O)[C@@H](Cc1c[nH]c2ccccc12)NC(=O)[C@@H](CCCCN)NC(=O)[C@@H](CCCCN)NC(=O)[C@H](N)CCCCN)C(=O)N[C@H](Cc1c[nH]c2ccccc12)C(=O)N[C@@H](C(=O)N[C@H](CC(C)C)C(=O)N[C@H](Cc1c[nH]c2ccccc12)C(=O)N[C@H](CCCCN)C(N)=O)C(C)C [KSH46, kkkwiwvlwk] (H-[dK][dK][dK][dW][dI][dW][dV][dL][dW][dK]-NH2; N-terminus assumed)
Tgt: MRAB (A. baumannii) ATCC BAA 1605
MIC MRAB (A. baumannii) ATCC BAA 1605 / µM: 0.63
--
Compound: CC[C@@H](C)[C@@H](NC(=O)[C@@H](Cc1c[nH]c2ccccc12)NC(=O)[C@H](NC(=O)[C@@H](CC(C)C)NC(=O)[C@H](N)Cc1c[nH]c2ccccc12)[C@H](C)CC)C(=O)NCC(=O)N[C@H](CC(C)C)C(=O)N[C@H](CCCNC(=N)N)C(=O)N[C@H](CCCCN)C(=O)N[C@H](CCCCN)C(=O)N[C@H](CCCNC(=N)N)C(N)=O [KSH I, wliwiglrkk r] (H-[dW][dL][dI][dW][dI]G[dL][dR][dK][dK][dR]-NH2; N-terminus assumed)
Tgt: MRAB (A. baumannii) ATCC BAA 1605
MIC MRAB (A. baumannii) ATCC BAA 1605 / µM: 1.25
